TARGET_OF_ASSAY: HLA-A*02:01
ASSAY_DETAILS: IEDB peptide-MHC binding, purified MHC/competitive/fluorescence; filed as Kd, often an IC50 or EC50 that approximates it; bounds were set here for any values at or beyond the usual limits of such assays
REPORTED_CONDITIONS: source organism: Pan troglodytes
REPORTED_METRIC: pKd
Give bare numbers, as −log10 of the molar value.

input: Bench note: what pKd did `FLFDRLTNG` show?
output: 8.82

----------
TARGET_OF_ASSAY: HLA-A*31:01
ASSAY_DETAILS: IEDB peptide-MHC binding, purified MHC/direct/fluorescence; filed as Kd, often an IC50 or EC50 that approximates it; bounds were set here for any values at or beyond the usual limits of such assays
REPORTED_CONDITIONS: source organism: Cowpox virus
REPORTED_METRIC: Kd (nM)
One number for each entry, in nM.

input: Bench note: what Kd did `SWLITSGFR` show?
output: 1100
